- experimentalSystem: T1, human glypican-3 (GPC3) (human, UniProt P51654 25-554)
- T1 construct: Endogenous on JHH-7, JHH-5, HepG2 and NCI-H446 tumour cells, or transiently expressed on CHO-S cells from a pTT5 plasmid; also called hGPC3; huGPC3
- protocolSummary: flow cytometry on CHO-S cells transfected with human GPC3;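 note: antibody binding to transiently transfected CHO-S cells after 24 hours at 4 °C, read as geometric mean fluorescence of anti-human AF647 in live cells, fitted against antibody concentration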
pKd: −log10 of the molar value.
measurementLabel: pKd

binder: codrituzumab (v37575) (antibody, human IgG1, kappa, V domains shown, also called GC33; RG-7686) VH: QVQLVQSGAEVKKPGASVKVSCKASGYTFTDYEMHWVRQAPGQGLEWMGALDPKTGDTAYSQKFKGRVTLTADKSTSTAYMELSSLTSEDTAVYYCTRFYSYTYWGQGTLVTVSS VL: DVVMTQSPLSLPVTPGEPASISCRSSQSLVHSNRNTYLHWYLQKPGQSPQLLIYKVSNRFSGVPDRFSGSGSGTDFTLKISRVEAEDVGVYYCSQNTHVPPTFGQGTKLEIKR
measurementLabel: pKd
quantitativeReadout: 10.10
//
binder: H18L6_LC_G34R mAb, v40206 (antibody, human IgG1, kappa, V domains shown, Full-size IgG1/kappa) VH: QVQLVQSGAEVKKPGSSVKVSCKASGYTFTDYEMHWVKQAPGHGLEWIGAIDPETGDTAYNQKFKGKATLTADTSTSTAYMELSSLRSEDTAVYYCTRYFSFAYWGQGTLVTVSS VL: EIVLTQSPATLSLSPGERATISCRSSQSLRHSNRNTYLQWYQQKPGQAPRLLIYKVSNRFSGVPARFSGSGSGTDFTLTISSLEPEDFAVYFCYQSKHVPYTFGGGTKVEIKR
measurementLabel: pKd
quantitativeReadout: 10.00
//
binder: H18L6_LC_G34T mAb, v40209 (antibody, human IgG1, kappa, V domains shown, M3-H18L6 chains with the stated light chain point mutation, IgG1/kappa) VH: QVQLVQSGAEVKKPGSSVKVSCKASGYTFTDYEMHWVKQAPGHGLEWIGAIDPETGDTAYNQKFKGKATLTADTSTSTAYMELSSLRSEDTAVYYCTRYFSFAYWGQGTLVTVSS VL: EIVLTQSPATLSLSPGERATISCRSSQSLRHSNTNTYLQWYQQKPGQAPRLLIYKVSNRFSGVPARFSGSGSGTDFTLTISSLEPEDFAVYFCYQSKHVPYTFGGGTKVEIKR
measurementLabel: pKd
quantitativeReadout: 9.96

These measurements were taken from patent US20250295799A1.
